I'd appreciate it if you could supply kd ratio pH 7.4/6.0 values for the items below.
Molecular target: T1, human FcRn/b2M (human, UniProt P61769 21-119, biotinylated)
T1 construct: bought recombinant biotinylated protein (ACRO FCM-H82W4 or Immunitrack ITF01); also called hFcRn; hFcRn/hb2M
T1 sequence (chain, as listed by the source limits assumed, chain 1 of 2): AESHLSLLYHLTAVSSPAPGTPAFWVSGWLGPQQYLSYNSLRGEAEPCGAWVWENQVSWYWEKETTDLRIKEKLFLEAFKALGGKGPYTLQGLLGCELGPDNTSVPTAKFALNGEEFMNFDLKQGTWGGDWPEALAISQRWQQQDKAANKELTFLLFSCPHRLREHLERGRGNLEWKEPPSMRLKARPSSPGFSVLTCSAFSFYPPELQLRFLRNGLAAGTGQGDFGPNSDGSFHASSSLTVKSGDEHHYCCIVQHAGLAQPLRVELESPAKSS
T1 sequence (P61769 21-119 limits assumed, chain 2 of 2): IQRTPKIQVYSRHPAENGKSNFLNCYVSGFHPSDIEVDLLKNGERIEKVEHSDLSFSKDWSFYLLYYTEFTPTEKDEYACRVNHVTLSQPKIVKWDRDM
Assay: SPR off-rate; pH 7.4 vs pH 6.0;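 note: surface plasmon resonance with diluted periplasmic extracts flowed over ligand surfaces, 120 s association and 600–3600 s dissociation at 25 °C, running buffer containing 150 mM NaCl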

Query: Provide kd ratio pH 7.4/6.0 value for the following binder: T0263018B11 S56V (VHH, name in Kabat numbering, FLAG3-His6 tagged) VHH: EVQLVESGGGVVQPGGSLRLSCAASGFTFSSYAMYWVRQAPGKGLEWVSAISSGGGVTDYADSVKGRFTISRDNSKNTLYLQMNSLRPEDTALYYCAADTLYTSLTWYSYWGQGTLVTVSS
Reply: 34

Query: Return kd ratio pH 7.4/6.0 for the following binder: T0263018B11 W100cQ (VHH, name in Kabat numbering, FLAG3-His6 tagged) VHH: EVQLVESGGGVVQPGGSLRLSCAASGFTFSSYAMYWVRQAPGKGLEWVSAISSGGGSTDYADSVKGRFTISRDNSKNTLYLQMNSLRPEDTALYYCAADTLYTSLTQYSYWGQGTLVTVSS
Reply: 56

Query: Look up and report measured kd ratio pH 7.4/6.0 for this entry: T0263018B11 F27L (VHH, name in Kabat numbering, FLAG3-His6 tagged) VHH: EVQLVESGGGVVQPGGSLRLSCAASGLTFSSYAMYWVRQAPGKGLEWVSAISSGGGSTDYADSVKGRFTISRDNSKNTLYLQMNSLRPEDTALYYCAADTLYTSLTWYSYWGQGTLVTVSS
Reply: 38

Query: Query kd ratio pH 7.4/6.0 for T0263018B11 S30N (VHH, name in Kabat numbering, FLAG3-His6 tagged) VHH: EVQLVESGGGVVQPGGSLRLSCAASGFTFNSYAMYWVRQAPGKGLEWVSAISSGGGSTDYADSVKGRFTISRDNSKNTLYLQMNSLRPEDTALYYCAADTLYTSLTWYSYWGQGTLVTVSS
Reply: 42

Query: Provide only the value of recorded kd ratio pH 7.4/6.0 for T0263018B11 W100cF (VHH, name in Kabat numbering, FLAG3-His6 tagged) VHH: EVQLVESGGGVVQPGGSLRLSCAASGFTFSSYAMYWVRQAPGKGLEWVSAISSGGGSTDYADSVKGRFTISRDNSKNTLYLQMNSLRPEDTALYYCAADTLYTSLTFYSYWGQGTLVTVSS
Reply: 44

Query: Hello, please tell me recorded kd ratio pH 7.4/6.0 for this one: T0263018B11 F29S (VHH, name in Kabat numbering, FLAG3-His6 tagged) VHH: EVQLVESGGGVVQPGGSLRLSCAASGFTSSSYAMYWVRQAPGKGLEWVSAISSGGGSTDYADSVKGRFTISRDNSKNTLYLQMNSLRPEDTALYYCAADTLYTSLTWYSYWGQGTLVTVSS
Reply: 41

Query: Recall and state the measured kd ratio pH 7.4/6.0 for T0263018B11 S56A (VHH, name in Kabat numbering, FLAG3-His6 tagged) VHH: EVQLVESGGGVVQPGGSLRLSCAASGFTFSSYAMYWVRQAPGKGLEWVSAISSGGGATDYADSVKGRFTISRDNSKNTLYLQMNSLRPEDTALYYCAADTLYTSLTWYSYWGQGTLVTVSS .
Reply: 39

Query: For T0263018B11 S56M (VHH, name in Kabat numbering, FLAG3-His6 tagged) VHH: EVQLVESGGGVVQPGGSLRLSCAASGFTFSSYAMYWVRQAPGKGLEWVSAISSGGGMTDYADSVKGRFTISRDNSKNTLYLQMNSLRPEDTALYYCAADTLYTSLTWYSYWGQGTLVTVSS , write its kd ratio pH 7.4/6.0.
Reply: 31
